Origin of measurements: paper PMC3966491

assayed target: AKT3 (PKB gamma) (Homo sapiens, UniProt Q9Y243)
Sequence (Q9Y243 whole entry): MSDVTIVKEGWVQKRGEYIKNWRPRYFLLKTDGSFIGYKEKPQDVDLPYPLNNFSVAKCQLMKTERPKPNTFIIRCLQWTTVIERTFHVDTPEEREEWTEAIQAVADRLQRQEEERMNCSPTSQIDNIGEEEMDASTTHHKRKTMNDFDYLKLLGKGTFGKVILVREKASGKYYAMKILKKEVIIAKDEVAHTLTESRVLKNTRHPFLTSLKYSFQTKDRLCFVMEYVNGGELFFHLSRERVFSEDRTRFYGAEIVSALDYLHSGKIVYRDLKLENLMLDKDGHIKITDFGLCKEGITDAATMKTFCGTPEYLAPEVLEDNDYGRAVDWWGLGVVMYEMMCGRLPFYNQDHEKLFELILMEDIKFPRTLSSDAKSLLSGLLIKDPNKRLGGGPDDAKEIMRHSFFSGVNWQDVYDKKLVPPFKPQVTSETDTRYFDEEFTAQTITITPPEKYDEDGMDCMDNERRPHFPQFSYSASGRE
# strict inequality: IC50 < 8 µM yields fulfilled, everything else yields not fulfilled

Dear reviewer, please state whether Cc1ccc2[nH]c(=O)c(C(=O)/C=C/c3nc4ccccc4[nH]3)c(-c3ccccc3)c2c1 has IC50 strictly beneath 8 µM.
fulfilled

Dear reviewer, please state whether O=C(/C=C/c1nc2ccccc2[nH]1)c1c(O)nc2ccc(Cl)cc2c1-c1ccccc1 has IC50 strictly beneath 8 µM.
not fulfilled

Dear reviewer, please state whether O=C(/C=C/c1nc2cc(F)ccc2[nH]1)c1c(-c2ccccc2)c2cc(Cl)ccc2[nH]c1=O has IC50 strictly beneath 8 µM.
fulfilled

Dear reviewer, please state whether Cc1ccc2[nH]c(/C=C/C(=O)c3c(-c4ccccc4)c4cc(Cl)ccc4[nH]c3=O)nc2c1 has IC50 strictly beneath 8 µM.
not fulfilled

Dear reviewer, please state whether O=C(/C=C/c1nc2ccccc2[nH]1)c1c(-c2ccccc2)c2cc(Br)ccc2[nH]c1=O has IC50 strictly beneath 8 µM.
not fulfilled
